conditions: 298.15 K; 101.33 kPa; Liquid; Vibrating tube method
measurement.kind: mass density (kg/m3)
Write the value in kg/m3 as a bare number.

Worked cases, answers included:
{"compound": "CCCCn1cc[n+](C)c1.O=S(=O)([O-])C(F)(F)C(F)(F)OC(F)C(F)(F)F (centres undefined)", "mass density, kg/m3": 1449}
{"compound": "CCCCn1cc[n+](C)c1.O=S(=O)([O-])C(F)(F)C(F)OC(F)(F)C(F)(F)F (centres undefined)", "mass density, kg/m3": 1423}
{"compound": "CCCC[n+]1cccc(C)c1.O=S(=O)([N-]S(=O)(=O)C(F)(F)F)C(F)(F)F", "mass density, kg/m3": 1412}
{"compound": "CCCC[n+]1ccn(C)c1.O=S(=O)([O-])C(F)(F)C(F)C(F)(F)F (centres undefined)", "mass density, kg/m3": 1409}
{"compound": "CCCCn1cc[n+](C)c1.O=S(=O)([O-])C(F)(F)C(F)OC(F)(F)F (centres undefined)", "mass density, kg/m3": 1393}

Query string: Please give the measured mass density for this compound: CCn1cc[n+](C)c1.O=S(=O)([N-]S(=O)(=O)C(F)(F)C(F)(F)F)C(F)(F)C(F)(F)F
Result string: 1590

Query string: Please give the measured mass density for this compound: CCn1cc[n+](C)c1.O=S(=O)([N-]S(=O)(=O)C(F)(F)F)C(F)(F)F
Result string: 1517

Query string: Param item = CCCn1cc[n+](C)c1C.O=S(=O)([C-](S(=O)(=O)C(F)(F)F)S(=O)(=O)C(F)(F)F)C(F)(F)F ; retrieve measured mass density.
Result string: 1597

Query string: # mass density lookup, item CCC[n+]1cccc(C)c1.O=S(=O)([N-]S(=O)(=O)C(F)(F)F)C(F)(F)F
Result string: 1444

----------
conditions: 323.15 K; 101.33 kPa; Liquid; Vibrating tube method
Below, each entry is listed alongside its reported mass density.
A number alone suffices; assume kg/m3.

Sample answers from the record:
{"compound": "CCn1cc[n+](C)c1.O=S(=O)([N-]S(=O)(=O)C(F)(F)F)C(F)(F)F", "test.result": 1492}
{"compound": "CCn1cc[n+](C)c1.O=S(=O)([N-]S(=O)(=O)C(F)(F)C(F)(F)F)C(F)(F)C(F)(F)F", "test.result": 1562}
{"compound": "CCCCn1cc[n+](C)c1.O=S(=O)([O-])C(F)(F)C(F)OC(F)(F)F (centres undefined)", "test.result": 1369}
{"compound": "CCCCn1cc[n+](C)c1.O=S(=O)([O-])C(F)(F)C(F)(F)OC(F)C(F)(F)F (centres undefined)", "test.result": 1425}

Query string: Look up mass density for this compound: CCCC[n+]1ccn(C)c1.O=S(=O)([O-])C(F)(F)C(F)C(F)(F)F (centres undefined)
Result string: 1385

Query string: Which mass density is reported for this compound? CCCC[n+]1cccc(C)c1.O=S(=O)([N-]S(=O)(=O)C(F)(F)F)C(F)(F)F
Result string: 1389

Query string: Which measured mass density value corresponds to CCCCn1cc[n+](C)c1.O=S(=O)([O-])C(F)(F)C(F)OC(F)(F)C(F)(F)F (centres undefined) ?
Result string: 1397

Query string: Which mass density is listed for CCC[n+]1cccc(C)c1.O=S(=O)([N-]S(=O)(=O)C(F)(F)F)C(F)(F)F ?
Result string: 1420

Query string: Fill blank: measured mass density of the compound CCCn1cc[n+](C)c1C.O=S(=O)([C-](S(=O)(=O)C(F)(F)F)S(=O)(=O)C(F)(F)F)C(F)(F)F is ____.
Result string: 1582
